Ref: patent US20090186874A1

target: substance P receptor (Homo sapiens); construct: The receptor was prepared from human lymphoblast cells (IM-9); endogenous in cells; assay: Radioligand receptor binding inhibitory activity (125I-BHSP binding to receptor from IM-9 cells); settings: receptor from human lymphoblast cells (IM-9); radioligand 125I-BHSP; 25° C., 30 minutes
Sequence (P25103 whole entry): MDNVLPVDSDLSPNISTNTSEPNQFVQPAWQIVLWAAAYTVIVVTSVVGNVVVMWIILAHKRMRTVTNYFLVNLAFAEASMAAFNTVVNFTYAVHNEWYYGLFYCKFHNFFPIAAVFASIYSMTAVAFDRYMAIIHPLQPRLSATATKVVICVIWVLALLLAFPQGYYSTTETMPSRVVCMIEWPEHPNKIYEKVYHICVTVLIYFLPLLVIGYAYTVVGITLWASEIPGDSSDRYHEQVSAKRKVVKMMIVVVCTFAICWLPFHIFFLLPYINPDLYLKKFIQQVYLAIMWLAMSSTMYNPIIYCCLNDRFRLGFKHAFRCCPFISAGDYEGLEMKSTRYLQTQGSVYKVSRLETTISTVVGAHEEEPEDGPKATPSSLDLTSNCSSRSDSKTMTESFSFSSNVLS
Where a name gives a salt, the structure may show the parent alone.
// reported IC50 for each item listed
measurement type: IC50 (pM)

molecule	observed
Cc1cc(F)ccc1[C@@H]1CNCC[C@H]1C(=O)N(C)Cc1cc(C(F)(F)F)cc(C(F)(F)F)c1 (relative stereo) [Example 12, hydrochloride]	51
CC(=O)N1CCC(C(=O)N2CC[C@H](C(=O)N(C)Cc3cc(C(F)(F)F)cc(C(F)(F)F)c3)[C@H](c3ccc(F)cc3)C2)CC1 (relative stereo) [Example 44]	19
Cc1cc(F)ccc1[C@@H]1CN(C(=O)Cn2cnnn2)CC[C@H]1C(=O)N(C)Cc1cc(C(F)(F)F)cc(C(F)(F)F)c1 (relative stereo) [Example 42]	22
Cc1cc(F)ccc1[C@@H]1CN(C(=O)CC2NC(=O)NC2=O)CC[C@H]1C(=O)N(C)Cc1cc(C(F)(F)F)cc(C(F)(F)F)c1 (relative stereo) [Example 43]	64
Cc1cc(F)ccc1[C@@H]1CN(C(N)=O)CC[C@H]1C(=O)N(C)Cc1cc(C(F)(F)F)cc(C(F)(F)F)c1 (relative stereo) [Example 75]	35
CC(=O)N1CCC(C(=O)N2CC[C@@H](C(=O)N(C)Cc3cc(C(F)(F)F)cc(C(F)(F)F)c3)[C@H](c3ccccc3)C2)CC1 (relative stereo) [Example 35]	98
Cc1cc(F)ccc1[C@@H]1CN(Cc2n[nH]c(=O)[nH]2)CC[C@H]1C(=O)N(C)Cc1cc(C(F)(F)F)cc(C(F)(F)F)c1 (relative stereo) [Example 54]	36
CC(=O)NCC(=O)N1CC[C@@H](C(=O)N(C)Cc2cc(C(F)(F)F)cc(C(F)(F)F)c2)[C@H](c2ccc(F)cc2C)C1 (relative stereo) [Example 77]	43
CC(=O)N1CCC(C(=O)N2CC[C@@H](C(=O)N(C)Cc3cc(C(F)(F)F)cc(C(F)(F)F)c3)[C@H](c3ccc(F)cc3)C2)CC1 (relative stereo) [Example 45]	52
Cc1cc(F)ccc1[C@@H]1CN(C(=O)C(N)=O)CC[C@H]1C(=O)N(C)Cc1cc(C(F)(F)F)cc(C(F)(F)F)c1 (relative stereo) [Example 73]	52
CC(=O)N1CCC(C(=O)N2CC[C@H](C(=O)N(C)Cc3cc(C(F)(F)F)cc(C(F)(F)F)c3)[C@H](c3ccccc3)C2)CC1 (relative stereo) [Example 30]	49
COCC(=O)N1CC[C@@H](C(=O)N(C)Cc2cc(C(F)(F)F)cc(C(F)(F)F)c2)[C@H](c2ccc(F)cc2C)C1 (relative stereo) [Example 40]	58
CC(=O)N1CCC(C(=O)N2CC[C@@H](C(=O)N(C)Cc3cc(C(F)(F)F)cc(C(F)(F)F)c3)[C@H](c3ccc(F)cc3C)C2)CC1 (relative stereo) [Example 46]	47
CCN(CC)CCC(=O)N1CC[C@@H](C(=O)N(C)Cc2cc(C(F)(F)F)cc(C(F)(F)F)c2)[C@H](c2ccc(F)cc2C)C1 (relative stereo) [Example 41, Hydrochloride]	25
